System: SNU-C2B;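 note: cell viability readout used to measure compound-driven suppression of SNU-C2B cell proliferation, IC50 marking half-maximal growth inhibition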
experiment: cells
Assay type: functional, cell-based
condition-description: Homo sapiens
Description: SANGER: Inhibition of human SNU-C2B cell growth in a cell viability assay.
pIC50: −log10 of the molar value.

>  <molecule>
CO[C@@]12[C@H](COC(N)=O)C3=C(C(=O)C(C)=C(N)C3=O)N1C[C@@H]1N[C@@H]12 [MITOMYCIN]

>  <measurement-qualifier>
=

>  <pIC50>
6.53

$$$$
>  <molecule>
CC(C)=CC[C@@H](O)C1=CC(=O)c2c(O)ccc(O)c2C1=O [SHIKONIN]

>  <measurement-qualifier>
<

>  <pIC50>
4.80

$$$$
>  <molecule>
C[C@]1(c2nc3c(C(N)=O)cccc3[nH]2)CCCN1 [VELIPARIB]

>  <measurement-qualifier>
<

>  <pIC50>
5.30

$$$$
>  <molecule>
CC[C@@]1(O)C(=O)OCc2c1cc1n(c2=O)Cc2cc3ccccc3nc2-1 [CAMPTOTHECIN]

>  <measurement-qualifier>
=

>  <pIC50>
7.45

$$$$

----------
Test system: EPLC-272H
experiment: cells
Format: functional, cell-based
condition-description: Homo sapiens
Description: SANGER: Inhibition of human EPLC-272H cell growth in a cell viability assay.
reported-property: IC50

>  <molecule>
C[C@]1(c2nc3c(C(N)=O)cccc3[nH]2)CCCN1 [VELIPARIB]

>  <reported-property>
IC50

>  <observed>
> 5 µM

$$$$

----------
Test system: HSC-4;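 note: growth inhibition of human HSC-4 cells, read out with a cell viability assay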
experiment: cells
Format: functional, cell-based
condition-description: Homo sapiens
Description: SANGER: Inhibition of human HSC-4 cell growth in a cell viability assay.
pIC50: −log10 of the molar value.
pIC50 values by entry
reported-property: pIC50

>  <compound>
N#C/C(=C1/Nc2ccccc2S1)c1ccnc(NCCc2cccnc2)n1

>  <reported-property>
pIC50

>  <observed>
< 5.10

$$$$
>  <compound>
CC(O)(CS(=O)(=O)c1ccc(F)cc1)C(=O)Nc1ccc(C#N)c(C(F)(F)F)c1 (stereo unspecified) [BICALUTAMIDE]

>  <reported-property>
pIC50

>  <observed>
< 5.99

$$$$
>  <compound>
C[C@]1(c2nc3c(C(N)=O)cccc3[nH]2)CCCN1

>  <reported-property>
pIC50

>  <observed>
< 5.30

$$$$
>  <compound>
CC(C)=CC[C@@H](O)C1=CC(=O)c2c(O)ccc(O)c2C1=O

>  <reported-property>
pIC50

>  <observed>
5.67

$$$$
>  <compound>
NC(=O)c1ncn([C@@H]2O[C@H](COP(=O)(O)O)[C@@H](O)[C@H]2O)c1N

>  <reported-property>
pIC50

>  <observed>
3.06

$$$$
>  <compound>
O=c1[nH]c2ccccc2n1C1CCN(Cc2ccc(-c3nc4cc5[nH]cnc5cc4nc3-c3ccccc3)cc2)CC1

>  <reported-property>
pIC50

>  <observed>
< 5.59

$$$$

----------
Test system: P30-OHK
experiment: cells
Assay type: functional, cell-based
condition-description: Homo sapiens
Description: SANGER: Inhibition of human P30-OHK cell growth in a cell viability assay.
IC50 values by entry

>  <compound>
O=C(CCCCCCC(=O)Nc1ccccc1)NO [VORINOSTAT]

>  <target-desc>
P30-OHK

>  <IC50>
836 nM

$$$$
>  <compound>
CC(=O)c1c(C)c2cnc(Nc3ccc(N4CCNCC4)cn3)nc2n(C2CCCC2)c1=O [PALBOCICLIB]

>  <target-desc>
P30-OHK

>  <IC50>
> 4000 nM

$$$$
>  <compound>
CCn1c(-c2nonc2N)nc2cnc(Oc3cccc(NC(=O)c4ccc(OCCN5CCOCC5)cc4)c3)cc21 [GSK-269962A]

>  <target-desc>
P30-OHK

>  <IC50>
> 2500 nM

$$$$
>  <compound>
Cc1[nH]c(/C=C2\C(=O)Nc3ccc(S(=O)(=O)Cc4c(Cl)cccc4Cl)cc32)c(C)c1C(=O)N1CCC[C@@H]1CN1CCCC1 [PHA-665752]

>  <target-desc>
P30-OHK

>  <IC50>
> 2000 nM

$$$$
>  <compound>
Cc1n[nH]c2ccc(-c3cncc(OC[C@@H](N)Cc4c[nH]c5ccccc45)c3)cc12 [A-443654]

>  <target-desc>
P30-OHK

>  <IC50>
> 1020 nM

$$$$
>  <compound>
COc1cc(Nc2c(C#N)cnc3cc(OCCCN4CCN(C)CC4)c(OC)cc23)c(Cl)cc1Cl [BOSUTINIB]

>  <target-desc>
P30-OHK

>  <IC50>
> 2000 nM

$$$$
>  <compound>
CC(C)=CC[C@@H](O)C1=CC(=O)c2c(O)ccc(O)c2C1=O [SHIKONIN]

>  <target-desc>
P30-OHK

>  <IC50>
220 nM

$$$$
>  <compound>
Fc1cc(-c2cc[nH]/c(=N/c3ccc(-n4cnc(N5CCOCC5)n4)cc3)n2)cc(N2CCOCC2)c1

>  <target-desc>
P30-OHK

>  <IC50>
299 nM

$$$$

----------
pIC50 values by entry
System: Becker
experiment: cells
Type: functional, cell-based
condition-description: Homo sapiens
Description: SANGER: Inhibition of human Becker cell growth in a cell viability assay.
pIC50: −log10 of the molar value.
reported-property: pIC50

>  <input-smiles>
CCNC(=O)c1noc(-c2cc(C(C)C)c(O)cc2O)c1-c1ccc(CN2CCOCC2)cc1

>  <measurement-qualifier>
=

>  <observed>
7.82

$$$$
>  <input-smiles>
C/C(O)=C(\C#N)C(=O)Nc1cc(Br)ccc1Br

>  <measurement-qualifier>
<

>  <observed>
4.80

$$$$
>  <input-smiles>
CC(=O)c1c(C)c2cnc(Nc3ccc(N4CCNCC4)cn3)nc2n(C2CCCC2)c1=O

>  <measurement-qualifier>
=

>  <observed>
5.53

$$$$
>  <input-smiles>
Fc1cc(-c2cc[nH]/c(=N/c3ccc(-n4cnc(N5CCOCC5)n4)cc3)n2)cc(N2CCOCC2)c1

>  <measurement-qualifier>
=

>  <observed>
5.97

$$$$
>  <input-smiles>
O=c1[nH]c2ccccc2n1C1CCN(Cc2ccc(-c3nc4cc5[nH]cnc5cc4nc3-c3ccccc3)cc2)CC1

>  <measurement-qualifier>
<

>  <observed>
5.59

$$$$
>  <input-smiles>
Cc1n[nH]c2ccc(-c3cncc(OC[C@@H](N)Cc4c[nH]c5ccccc45)c3)cc12

>  <measurement-qualifier>
=

>  <observed>
6.52

$$$$
>  <input-smiles>
CC(C)=CC[C@@H](O)C1=CC(=O)c2c(O)ccc(O)c2C1=O

>  <measurement-qualifier>
=

>  <observed>
5.80

$$$$

----------
System: L-540;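 note: growth inhibition of the human L-540 cell line, read out with a viability assay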
experiment: cells
Format: functional, cell-based
condition-description: Homo sapiens
Description: SANGER: Inhibition of human L-540 cell growth in a cell viability assay.

>  <input-smiles>
Cc1n[nH]c2ccc(-c3cncc(OC[C@@H](N)Cc4c[nH]c5ccccc45)c3)cc12

>  <measurement-qualifier>
=

>  <IC50, nM>
346

$$$$
>  <input-smiles>
C/C(O)=C(\C#N)C(=O)Nc1cc(Br)ccc1Br

>  <measurement-qualifier>
>

>  <IC50, nM>
16000

$$$$
>  <input-smiles>
CC(C)=CC[C@@H](O)C1=CC(=O)c2c(O)ccc(O)c2C1=O

>  <measurement-qualifier>
=

>  <IC50, nM>
4900

$$$$
>  <input-smiles>
Cc1nc(Nc2ncc(C(=O)Nc3c(C)cccc3Cl)s2)cc(N2CCN(CCO)CC2)n1

>  <measurement-qualifier>
>

>  <IC50, nM>
1280

$$$$
>  <input-smiles>
Fc1cc(-c2cc[nH]/c(=N/c3ccc(-n4cnc(N5CCOCC5)n4)cc3)n2)cc(N2CCOCC2)c1

>  <measurement-qualifier>
=

>  <IC50, nM>
677

$$$$
>  <input-smiles>
Cc1[nH]c(/C=C2\C(=O)Nc3ccc(S(=O)(=O)Cc4c(Cl)cccc4Cl)cc32)c(C)c1C(=O)N1CCC[C@@H]1CN1CCCC1

>  <measurement-qualifier>
>

>  <IC50, nM>
2000

$$$$

----------
Test system: EW-16;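 note: growth inhibition of human EW-16 cells, read out as cell viability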
experiment: cells
Assay type: functional, cell-based
condition-description: Homo sapiens
Description: SANGER: Inhibition of human EW-16 cell growth in a cell viability assay.
IC50 values by entry
reported-property: IC50

>  <input-smiles>
NC(=O)c1ncn([C@@H]2O[C@H](COP(=O)(O)O)[C@@H](O)[C@H]2O)c1N

>  <reported-property>
IC50

>  <observed>
> 2000 µM

$$$$
>  <input-smiles>
Cc1ccc(NC(=O)c2cccc(C(C)(C)C#N)c2)cc1Nc1ccc2ncn(C)c(=O)c2c1

>  <reported-property>
IC50

>  <observed>
> 4 µM

$$$$
>  <input-smiles>
COc1cc(Nc2c(C#N)cnc3cc(OCCCN4CCN(C)CC4)c(OC)cc23)c(Cl)cc1Cl

>  <reported-property>
IC50

>  <observed>
1.44 µM

$$$$

----------
Test system: Panc1005;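 note: growth inhibition of human PANC-10-05 cells, measured by a cell viability assay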
experiment: cells
Assay type: functional, cell-based
condition-description: Homo sapiens
Description: SANGER: Inhibition of human PANC-10-05 cell growth in a cell viability assay.
pIC50: −log10 of the molar value.
pIC50 values by entry

>  <compound>
Cn1c(=O)n(-c2ccc(C(C)(C)C#N)cc2)c2c3cc(-c4cnc5ccccc5c4)ccc3ncc21 [DACTOLISIB]

>  <pIC50>
6.61

$$$$
>  <compound>
C/C(O)=C(\C#N)C(=O)Nc1cc(Br)ccc1Br

>  <pIC50>
< 4.80

$$$$
>  <compound>
NC(=O)c1ncn([C@@H]2O[C@H](COP(=O)(O)O)[C@@H](O)[C@H]2O)c1N

>  <pIC50>
< 2.70

$$$$
>  <compound>
Fc1cc(-c2cc[nH]/c(=N/c3ccc(-n4cnc(N5CCOCC5)n4)cc3)n2)cc(N2CCOCC2)c1

>  <pIC50>
6.34

$$$$
>  <compound>
C[C@]1(c2nc3c(C(N)=O)cccc3[nH]2)CCCN1 [VELIPARIB]

>  <pIC50>
< 5.30

$$$$
>  <compound>
Cn1cc(/C=C2\C(=O)Nc3cccnc32)c2ccccc21

>  <pIC50>
< 5.70

$$$$
>  <compound>
CC(O)(CS(=O)(=O)c1ccc(F)cc1)C(=O)Nc1ccc(C#N)c(C(F)(F)F)c1 (configuration not stated) [BICALUTAMIDE]

>  <pIC50>
< 5.99

$$$$
